Reference source for all entries: PubChem BioAssay (NCATS)

System: MKL-1
Assay: qHTS assay to identify novel small-molecules to repurpose for Merkel cell carcinoma treatment (AID 1296009); note: nearly all actives have a fitted effect of over 60% in size
Conditions: MCC and control cell lines, CellTiter-Glo viability, 72 h; series mostly up to 46 µM
From the text: MCC is a rare and aggressive neuroendocrine skin cancer with limited treatment options. Approximately 80% of MCCs have the Merkel cell polyomavirus (MCPyV) DNA integrated into the host genome (virus-positive: VP-MCC) and viral oncogenes drive oncogenesis. The remaining MCCs are virus-negative (VN-MCC) and are caused by UV mutagenesis. […] Using cell viability as a readout (CellTiter-Glo assay) we found both overlapping and distinct drugs that can be repurposed for the treatment of VP-MCC and VN-MCC. […]
Results filed as inconclusive are left out. Active and inactive are the calls of the source. Calls come from the whole dose curve; as a rule, active = well fitted inhibition curve with a large enough effect; inconclusive = small, poorly fitted or top-dose-only effect; inactive = flat fitted curve, though single readings scatter.
Answer with one of the outcomes given here: true for active, false for inactive

Answered cases to consult:
[
  {
    "COMPOUND": "O=C(Nc1c(Cl)cncc1Cl)c1ccc(OC(F)F)c(OCC2CC2)c1",
    "CAT": "false"
  },
  {
    "COMPOUND": "O=C(N[C@@H](c1ccccc1)[C@@H]1CCCCN1)c1cccc(C(F)(F)F)c1Cl",
    "CAT": "false"
  },
  {
    "COMPOUND": "COc1ccc2c(Oc3ccc(NC(=O)c4c(C)n(CC(C)(C)O)n(-c5ccccc5)c4=O)cc3F)ccnc2c1",
    "CAT": "false"
  },
  {
    "COMPOUND": "NC(=O)NN=Cc1ccc([N+](=O)[O-])o1",
    "CAT": "false"
  },
  {
    "COMPOUND": "COc1cc(Nc2ncc(F)c(Nc3ccc4c(n3)NC(=O)C(C)(C)O4)n2)cc(OC)c1OC",
    "CAT": "false"
  },
  {
    "COMPOUND": "NC1CCC(Nc2nc(Nc3ccc(C(=O)N4CCCCC4)cc3)c3ncn(-c4cccc(F)c4)c3n2)CC1 (stereo unspecified)",
    "CAT": "false"
  }
]

For O=C1C(Cl)=C(NCCN2CCOCC2)C(=O)c2ncccc21 , what call appears in the results of this test?
true

For CC(=O)Oc1cc2c(s1)CCN(C(C(=O)C1CC1)c1ccccc1F)C2 (stereo unspecified) , what call appears in the results of this test?
true

For COc1cc(NC(=O)c2ccc(-c3ccc(Cl)cc3)o2)cc(OC)c1 , what call appears in the results of this test?
false

For CCCNC(=O)NS(=O)(=O)c1ccc(Cl)cc1 , what call appears in the results of this test?
false

For Cc1ccc(C(C)(O)c2nc3ccccc3s2)c(C)c1 (stereo unspecified) , what call appears in the results of this test?
true
